These entries and their values trace back to patent US20030148958A1.

Each item that follows carries a reported CRF2R EC50.
- TARGET_OR_TEST_SYSTEM: T1, corticotropin releasing factor 2 receptor
- T1 sequence (Q13324 whole entry, species assumed, looked up): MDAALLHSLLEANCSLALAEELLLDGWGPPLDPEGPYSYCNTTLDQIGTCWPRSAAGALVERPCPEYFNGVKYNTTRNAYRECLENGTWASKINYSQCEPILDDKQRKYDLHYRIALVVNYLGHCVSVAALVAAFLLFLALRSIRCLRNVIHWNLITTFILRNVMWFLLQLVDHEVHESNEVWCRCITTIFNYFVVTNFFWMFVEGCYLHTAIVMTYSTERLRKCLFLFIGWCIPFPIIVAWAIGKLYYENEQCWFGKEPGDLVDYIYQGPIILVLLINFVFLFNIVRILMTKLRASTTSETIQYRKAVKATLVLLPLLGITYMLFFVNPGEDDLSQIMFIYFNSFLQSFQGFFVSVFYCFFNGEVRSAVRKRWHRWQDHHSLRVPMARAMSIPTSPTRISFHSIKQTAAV
- PROTOCOL_SUMMARY: cell-based or functional assay
Ends that are not written are not given here.

Take a look at these entries with their results.
BINDER	CRF2R EC50
IVLSLDVPIGLLQILLEQEKARAAREQATTNARILARV-NH2 [SEQ ID NO 121]	5.67 nM
IVLSLDVPIGLLQILLEQRAAREQATTNARILARV-NH2 [SEQ ID NO 136]	23.4 nM
IVLSLDVPIGLLQILLEQAAAREQATTNARILARV-NH2 [SEQ ID NO 139]	42.6 nM

Query :: Requested field: CRF2R EC50. Item: ZGPPISIDLPTELLRKMIEIEKQEKEKQQAANNRLLLDTI (C-terminal amide) [SEQ ID NO 71]
Result :: 94.8 nM

Query :: Requested field: CRF2R EC50. Item: DNPSLSIDLPFQLLRTLLELARTQSQRERAEQNAIIFASV-NH2 [SEQ ID NO 182]
Result :: 7.21 nM

Query :: Requested field: CRF2R EC50. Item: ZGPPISIDLPIILLRKMIEIEKQEKEKQQAANNRLLLDTI (C-terminal amide) [SEQ ID NO 36]
Result :: 14.8 nM
